biological target: Ferrochelatase, mitochondrial (Homo sapiens) (UniProt P22830); conditions: at 10 µM
Sequence (P22830 whole entry): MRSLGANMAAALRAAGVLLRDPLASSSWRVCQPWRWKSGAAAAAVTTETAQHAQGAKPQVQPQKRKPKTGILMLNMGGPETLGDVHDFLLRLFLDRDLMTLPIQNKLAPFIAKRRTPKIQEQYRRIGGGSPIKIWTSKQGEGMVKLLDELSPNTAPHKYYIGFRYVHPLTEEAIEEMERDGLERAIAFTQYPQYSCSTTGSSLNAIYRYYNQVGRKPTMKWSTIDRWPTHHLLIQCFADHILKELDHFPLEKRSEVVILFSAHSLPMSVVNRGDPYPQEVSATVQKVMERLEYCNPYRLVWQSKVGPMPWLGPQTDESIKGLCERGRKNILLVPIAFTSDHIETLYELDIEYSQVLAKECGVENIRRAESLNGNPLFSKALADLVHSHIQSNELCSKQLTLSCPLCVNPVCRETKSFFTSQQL
Description: Compound was evaluated for the inhibition of human FECH at 10uM
The source made the active and inactive calls. How the calls were made is not given here.
recordedMetric: inhibition

COc1ccc(C2=NN(C3CCCCCC3)C(=O)C2(C)C)cc1OCc1ccccn1 | inactive
Cc1c[nH]c(CCNC(=O)c2cc(-c3ccc(Cl)cc3)cs2)n1 | inactive
O=C(Nc1cccc(Cl)c1)c1cnc(N2CCN(c3ccncc3)CC2)c(Cl)c1 | inactive

---

biological target: Ferrochelatase, mitochondrial (Homo sapiens); conditions: at 10 µM
Activity calls are given as the source filed them. How the calls were made is not given here.
recordedMetric: inhibition

CCN(CC)C(=O)N1CCN(C)CC1 | inactive
C[C@H]1c2cccc(O)c2C(=O)C2=C(O)[C@]3(O)C(=O)C(C(N)=O)=C(O)[C@@H](N(C)C)[C@@H]3[C@@H](O)[C@@H]21 | inactive
CS(=O)(=O)c1ccc(C(=O)N(CC2CCCO2)c2nc3ccccc3s2)cc1[N+](=O)[O-] (stereo unspecified) | inactive
c1ccc(C[C@@H]2CN(c3nccc(Oc4ccc(-n5ccnc5)cc4)n3)CCN2)cc1 | inactive
O=C(NCCN1CCCC1)c1cc(NCCCCN2CCC(F)(F)CC2)nc2ccc(Cl)cc12 | inactive
COC(=O)c1c(NC(=O)c2cc3ccccc3oc2=O)sc2c1CCN(Cc1ccccc1)C2 | inactive
COc1ccc(OC)c(NCc2ccc3nc(N)nc(N)c3c2Cl)c1 | inactive
C[C@H](c1ccc2c(c1)CCCC2)N(C)c1ncc2c(N)nc(N)nc2n1 | inactive

Which inhibition is reported with Ferrochelatase, mitochondrial (Homo sapiens) for this entry: Cc1cc(C(=O)Nc2ccc(-c3ccccc3)cc2)no1 ?
inactive

Provide the documented inhibition with Ferrochelatase, mitochondrial (Homo sapiens) as the system for CC1COC(Cn2cncn2)(c2ccc(Oc3ccc(Cl)cc3)cc2Cl)O1 (stereo unspecified)
inactive

Which inhibition is reported with Ferrochelatase, mitochondrial (Homo sapiens) for this entry: O=C(Nc1ccc(N2CCNCC2)cc1)c1ccn2ncc(-c3cccc(Cl)c3)c2n1 ?
inactive

For Ferrochelatase, mitochondrial (Homo sapiens), provide inhibition of COc1ccc(C2(C(=O)Nc3ccc(Br)cc3)CCCC2)cc1 please.
inactive

Report inhibition for CC[C@H](CO)NCCN[C@H](CC)CO tested on Ferrochelatase, mitochondrial (Homo sapiens).
inactive

# returns recorded inhibition (system: Ferrochelatase, mitochondrial (Homo sapiens)) for CN1CCN(c2nccc3nc(-c4ccc(F)c(F)c4)[nH]c23)CC1
inactive

Entry CN1CCN(c2nccc3[nH]c(-c4cccc(F)c4)cc23)CC1 , system Ferrochelatase, mitochondrial (Homo sapiens): what inhibition was measured?
inactive

API: value(readout= inhibition, system= Ferrochelatase, mitochondrial (Homo sapiens), query= Cc1nn(C(=O)Nc2cccc(C(F)(F)F)c2)c(C)c1Sc1ncccn1 )
inactive

Please state recorded inhibition (tested on Ferrochelatase, mitochondrial (Homo sapiens)) of CC[C@@H]([C@H](C)O)n1ncn(-c2ccc(N3CCN(c4ccc(OC[C@@H]5CO[C@@](Cn6cncn6)(c6ccc(F)cc6F)C5)cc4)CC3)cc2)c1=O
inactive

Value wanted: inhibition (Ferrochelatase, mitochondrial (Homo sapiens)) of entry CC(C)(CN)c1nc(-c2ccc(Cl)c(O)c2)c(-c2ccnc(N)n2)[nH]1
inactive

Form: Entry = COC(=O)C1=C(C)NC(C)=C(C(=O)OC(C)C)C1c1cccc2nonc12 (stereo unspecified) | System = Ferrochelatase, mitochondrial (Homo sapiens) | inhibition = ____
inactive

Form field - read-out: inhibition; system: Ferrochelatase, mitochondrial (Homo sapiens); submitted item: Cc1nn2c(=O)c3c([nH]c2c1-c1ccc(Cl)cc1)CCCC3
inactive

Quick check: inhibition on Ferrochelatase, mitochondrial (Homo sapiens), item CN1CCC(c2cc(-c3ccncc3)c(-c3ccc(F)cc3)[nH]2)CC1 ?
inactive

---

target: Porphobilinogen deaminase (Homo sapiens); settings: at 100 µM
Description: Compound was evaluated for the inhibition of human HMBS at 100uM
Active and inactive are the calls of the source. How the calls were made is not given here.
recordedMetric: inhibition

# annotated cases, reported inhibition shown
Cc1cccc(NC(=O)c2cc(S(=O)(=O)N(C)c3ccc(F)cc3)ccc2Cl)n1 | inactive
COc1cccc2c(C)nc(N=C(N)N)nc12 | inactive
Cc1ccc2nc(Cl)c(CNCc3cccs3)cc2c1 | inactive
CC(C)(C)c1cc(C(=O)N2CCN(c3nccnc3C#N)CC2)n(Cc2ccccc2)n1 | inactive
Cc1ccc(S(=O)(=O)Nc2ccc(CN3CCN(C(=O)c4cccc(C#N)c4)CC3)cc2)cc1 | inactive

Reported inhibition for Cc1ccc(Oc2ccc(NC(=O)CNc3ccccc3N3CCCC3=O)cc2)cc1 : what is it?
inactive

Sample CCC(C)NC(=O)c1ccc(NC(=O)C2(c3ccccc3)CCCC2)cc1 (stereo unspecified) — what was its inhibition?
inactive

Form field: reported inhibition of Cc1noc(C)c1COc1cccc(C(=O)N=c2[nH]cccc2C)c1
inactive

Quick one: inhibition of c1cc(C2=NCCN2)cc(-c2cc(-c3ccc(C4=NCCN4)cc3)no2)c1 ?
inactive

Quick one: inhibition for O=C(NCCc1c[nH]c2ccccc12)c1cc2ccccc2oc1=O ?
inactive

Look up inhibition for this compound: CC(C(=O)Nc1ccc2oc(-c3ccncc3)nc2c1)c1ccccc1 (stereo unspecified)
inactive

// data source = ChEMBL document CHEMBL3987221
